test system: Staphylococcus epidermidis; experiment: Antibacterial activity against Staphylococcus epidermidis SE1457 by broth microdilution method; assay type: functional
MIC for assorted compounds
Answer in µM, number only, no unit symbol.

Study these solved cases before continuing.
O=C(C1=C(O)C(=O)N(c2nnc(SCc3ccc(Cl)cc3)s2)C1c1ccccc1O)c1cc2ccccc2o1 (centres undefined)    25
O=C(C1=C(O)C(=O)N(c2nnc(SCc3cccc(Cl)c3)s2)C1c1ccccc1O)c1cc2ccccc2o1 (centres undefined)    25
COc1cc(C2C(C(=O)c3cc4ccccc4o3)=C(O)C(=O)N2c2nnc(SCc3ccccc3Cl)s2)ccc1O (centres undefined)    25
CCCCCCCCCC(=O)N[C@@H](Cc1c[nH]c2ccccc12)C(=O)N[C@H](CC(N)=O)C(=O)N[C@@H](CC(=O)O)C(=O)N[C@@H]1C(=O)NCC(=O)N[C@@H](CCCN)C(=O)N[C@@H](CC(=O)O)C(=O)N[C@H](C)C(=O)N[C@@H](CC(=O)O)C(=O)NCC(=O)N[C@H](CO)C(=O)N[C@@H]([C@H](C)CC(=O)O)C(=O)N[C@@H](CC(=O)c2ccccc2N)C(=O)O[C@@H]1C    2

Specify reported MIC for the compound shown: O=C(C1=C(O)C(=O)N(c2nnc(SCc3ccccc3Cl)s2)C1c1ccc(O)cc1)c1cc2ccccc2o1 (centres undefined)
50

Data provenance is ChEMBL document CHEMBL5614418.
